I'd be grateful if you could share measured GI50 for these entries.
System: MDA-MB-231
assay method text: NCI tumour cell line growth inhibition, 48 h
The source made the active and inactive calls. No stated cut-off is given here; in the data, active = GI50 up to about 1.1 µM and inactive = higher.

Sample answers from the record:
compound	target desc	observed measurement
CC(=O)CCNc1ccc(-c2cc(-c3ccc(N(C)C)cc3)nc3ccc4ccccc4c23)cc1	MDA-MB-231	> 75 µM (inactive)
Cc1ccc(-c2c(-c3ccccc3)[nH]c(C)c2C(=O)ONC(=O)c2ccccc2)cc1	MDA-MB-231	3.4 µM (inactive)
COc1oc(C2C/C(=C/C(C)=C/C(C)=C/C(C)=C/c3ccc([N+](=O)[O-])cc3)CO2)c(C)c(=O)c1C (stereo not given)	MDA-MB-231	15.8 µM (inactive)
CC(C)(C)Cc1cc(O)ccc1O	MDA-MB-231	42.2 µM (inactive)
Cc1ccc(-c2n[nH]c(=O)n2N)cc1	MDA-MB-231	> 100 µM (inactive)

Report GI50 for each item below.
1. COc1ccc(CC2c3cc4c(cc3CCN2C)OCO4)c(C=O)c1OC (stereo not given)
2. COc1ccc(-n2c3c(c4c(CN(C)C)c(O)ccc42)C(=O)c2ccccc2C3=O)cc1
3. Clc1cccc(Cl)c1C(Nc1nncs1)Nc1nncs1
4. CNC(=O)OCC1=C(COC(=O)NC)C(C)N(c2ccc(OC)cc2)C1 (stereo not given)
5. N#CC1(C#N)C(c2ccccc2)NC23CCCCC2C1(C#N)C(=O)N3 (stereo not given)

1. > 100 µM (inactive)
2. 3.08 µM (inactive)
3. > 100 µM (inactive)
4. > 100 µM (inactive)
5. > 100 µM (inactive)
